Test: recombinant UMI read abundance after kanamycin selection (control-corrected) (log10(CPM+1)); higher = more efficient recombination; extreme values may be limits of the assay; sequences stand for … in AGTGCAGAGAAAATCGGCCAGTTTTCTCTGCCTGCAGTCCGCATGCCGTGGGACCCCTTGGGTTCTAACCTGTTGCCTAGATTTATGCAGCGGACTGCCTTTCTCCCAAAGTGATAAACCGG…AGGTTGGTTTCACT; site = the 11-nt donor
Decide using recombinant UMI read abundance (log10): a value greater than or equal to 0.7 is y, a smaller one is n.

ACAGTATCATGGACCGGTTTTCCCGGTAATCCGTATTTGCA (site AACGTATCTTG)	y
GTAGATTCATGGACCGGTTTTCCCGGTAATCCGTATTTGTT (site GCAGATTCTAA)	y
CGTTGATCATGGACCGGTTTTCCCGGTAATCCGTATTTGCT (site CGATCATCTAG)	n
ATCCAAGCATGGACCGGTTTTCCCGGTAATCCGTATTTGGG (site ATCCAAGCTCT)	n
TACAATTCATGGACCGGTTTTCCCGGTAATCCGTATTTGCC (site TCCAATTCTGG)	n
GAGGCACCATGGACCGGTTTTCCCGGTAATCCGTATTTGCA (site GCGGCACCTTG)	n
CAATGATCATGGACCGGTTTTCCCGGTAATCCGTATTTGAA (site CAATGGTCTTT)	n
CTCCATGCATGGACCGGTTTTCCCGGTAATCCGTATTTGTC (site CTCCATGCTGA)	y

====

Test: recombinant barcode read abundance after kanamycin selection (control-corrected) (log10(CPM+1)); higher = more efficient recombination; sequences stand for … in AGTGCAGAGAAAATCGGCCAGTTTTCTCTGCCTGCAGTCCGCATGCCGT…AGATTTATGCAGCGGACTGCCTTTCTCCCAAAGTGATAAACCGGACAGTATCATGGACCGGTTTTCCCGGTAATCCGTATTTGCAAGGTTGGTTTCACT; site = the 11-nt target
Think of 0.3 as a floor: if recombinant barcode read abundance (log10) stands on it or above, it is rule met; beneath it, rule not met.

CGTCGGGCTTGGGTTCTAACCTGTTGCAG (site CTTCGGGCTCT)	rule not met
CAGCGAGCTTGGGTTCTAACCTGTTGCCG (site CAACGAGCTCG)	rule not met
CGTCTGCCTTGGGTTCTAACCTGTTGCCT (site GGTCTGCCTAG)	rule not met
AGGAACCCTTGGGTTCTAACCTGTTGCTG (site AGGAACCCTAA)	rule met
GGTGACCCTTGGGTTCTAACCTGTTGCAT (site TCGTGAGCTCA)	rule met
TCGAAGCCTTGGGTTCTAACCTGTTGCCT (site TCGAACCCTAG)	rule not met
GTAGAGTCTTGGGTTCTAACCTGTTGCTT (site GTGGAGTCTAG)	rule met
GTAACCGCTTGGGTTCTAACCTGTTGCCT (site GTCACCGCTAG)	rule not met
TGGTGTCCTTGGGTTCTAACCTGTTGCCA (site TGGTGTCCTTG)	rule met
AGCCTGGCTTGGGTTCTAACCTGTTGCCT (site AGCCTGGCTAG)	rule met
TACCGGTCTTGGGTTCTAACCTGTTGCTT (site TACCCGTCTAA)	rule not met
CCTTGTTCTTGGGTTCTAACCTGTTGCCT (site TCTTGTTCTAG)	rule not met
TTAAGTCCTTGGGTTCTAACCTGTTGCCT (site TTAAGTCCTAG)	rule met
AGAGGGTCTTGGGTTCTAACCTGTTGCCT (site ATAGGGTCTAG)	rule met
CCGTGCCCTTGGGTTCTAACCTGTTGCTG (site CCGTGCCCTCA)	rule met
CTGATGACTTGGGTTCTAACCTGTTGCCT (site CTGATCACTAG)	rule not met
CTCTCGTCTTGGGTTCTAACCTGTTGCAT (site CTCTCGTCTAG)	rule not met
ATCGCTCCTTGGGTTCTAACCTGTTGCCT (site AGCGCTCCTAG)	rule not met
GTCTATACTTGGGTTCTAACCTGTTGCCT (site GTCTATACTAG)	rule met
ACGACTACTTGGGTTCTAACCTGTTGCCT (site ACGACTTCTAG)	rule not met
TGTAGTACTTGGGTTCTAACCTGTTGCCT (site TGGAGTACTAA)	rule not met
GTGGCTTCTTGGGTTCTAACCTGTTGCCT (site GGGGCTTCTAG)	rule not met
GAGCGCACTTGGGTTCTAACCTGTTGCAG (site GAGCGCACTCT)	rule met
CCGCCCTCTTGGGTTCTAACCTGTTGCCT (site CTGCCCTCTAG)	rule not met
GCGTCTCCTTGGGTTCTAACCTGTTGCAT (site GCGACTCCTAT)	rule not met
ATTTGACCTTGGGTTCTAACCTGTTGCCG (site ACTTGACCTCT)	rule not met
CTGGCCACTTGGGTTCTAACCTGTTGCCT (site CTGGCCACTAG)	rule met
AAAGCTCCTTGGGTTCTAACCTGTTGCTT (site AAAGCTACTAG)	rule not met
CTCCGACCTTGGGTTCTAACCTGTTGCTT (site CTCCGGCCTAA)	rule met
CTCTCGACTTGGGTTCTAACCTGTTGCCA (site CTCTCGACTTG)	rule met
CAACCGACTTGGGTTCTAACCTGTTGCCT (site CAACCGCCTAG)	rule not met
ATGGTGTCTTGGGTTCTAACCTGTTGCCT (site ATGGTGTCTAG)	rule met
ATGGCACCTTGGGTTCTAACCTGTTGCCT (site ATGGCACCTAG)	rule met
TCGGATACTTGGGTTCTAACCTGTTGCAT (site TCGGATACTAT)	rule met
ACTCCAGCTTGGGTTCTAACCTGTTGCCT (site ACTCCAGCTAG)	rule met
CATCGATCTTGGGTTCTAACCTGTTGCCT (site CATCGATCTAG)	rule met
TAGCTCCCTTGGGTTCTAACCTGTTGCCC (site TAGCTCCCTTG)	rule not met
AGGTAACCTTGGGTTCTAACCTGTTGCCT (site AGGTAACCTAG)	rule met
TTCTCGCCTTGGGTTCTAACCTGTTGCCT (site TTCCCGCCTAG)	rule met
TGCTGATCTTGGGTTCTAACCTGTTGCCT (site CGCTGATCTAG)	rule not met
TTCAAACCTTGGGTTCTAACCTGTTGCCT (site TTCAAAGCTAG)	rule not met
TAGTTATCTTGGGTTCTAACCTGTTGCTA (site AGACGTACTAC)	rule not met
